The reported numbers originate from patent US20200283478A1.

IC50 overview
- targetUnderTest: T1, His-tagged, full-length human PCSK9 (proprotein convertase subtilisin/kexin type 9) (human, UniProt A8T644 31-152; Q8NBP7 153-692)
- T1 construct: also called His-PCSK9; C-terminal (His)8-tagged PCSK9
- T1 sequence (A8T644 31-152, chain 1 of 2): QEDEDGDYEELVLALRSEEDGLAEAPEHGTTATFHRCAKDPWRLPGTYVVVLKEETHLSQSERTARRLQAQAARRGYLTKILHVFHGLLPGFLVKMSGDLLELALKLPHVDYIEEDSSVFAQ
- T1 sequence (A8T644 other isoform, or with tags, fused parts or gaps, chain 2 of 2): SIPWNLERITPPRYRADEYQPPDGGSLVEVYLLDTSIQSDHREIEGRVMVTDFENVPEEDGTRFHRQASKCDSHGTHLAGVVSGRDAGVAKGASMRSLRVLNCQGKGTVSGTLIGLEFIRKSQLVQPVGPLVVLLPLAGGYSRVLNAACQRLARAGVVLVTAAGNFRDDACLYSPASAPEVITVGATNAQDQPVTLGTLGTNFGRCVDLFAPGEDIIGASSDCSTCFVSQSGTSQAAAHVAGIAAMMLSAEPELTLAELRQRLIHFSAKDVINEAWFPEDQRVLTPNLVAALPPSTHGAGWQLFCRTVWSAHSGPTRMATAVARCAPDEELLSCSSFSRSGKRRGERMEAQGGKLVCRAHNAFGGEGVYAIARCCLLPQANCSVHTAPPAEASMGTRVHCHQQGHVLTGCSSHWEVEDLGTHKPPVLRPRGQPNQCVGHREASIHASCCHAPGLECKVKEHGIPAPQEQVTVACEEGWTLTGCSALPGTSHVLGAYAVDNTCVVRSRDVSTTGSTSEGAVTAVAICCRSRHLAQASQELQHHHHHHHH
- procedureDetails: TR-FRET competition; His-PCSK9 with EGF(A)-Fc as competitor ligand
Square brackets hold non-standard residues; d marks the D form. hArg = N=C(N)NCCCC[C@H](N)C(=O)O
Answer in µM, number only, no unit symbol.

1) Ac-SFAFPGWNLV[hArg]IGLLR-NH2 (SMILES CC[C@H](C)[C@H](NC(=O)[C@H](CCCCNC(=N)N)NC(=O)[C@@H](NC(=O)[C@H](CC(C)C)NC(=O)[C@H](CC(N)=O)NC(=O)[C@H](Cc1c[nH]c2ccccc12)NC(=O)CNC(=O)[C@@H]1CCCN1C(=O)[C@H](Cc1ccccc1)NC(=O)[C@H](C)NC(=O)[C@H](Cc1ccccc1)NC(=O)[C@H](CO)NC(C)=O)C(C)C)C(=O)NCC(=O)N[C@@H](CC(C)C)C(=O)N[C@@H](CC(C)C)C(=O)N[C@@H](CCCNC(=N)N)C(N)=O) [Compound 228: Ac-SFAFPGWNLV(homoR)IGLLR-NH2] :: 13.2
2) Ac-ESYPGWNLV[hArg]IGLLR-NH2 (SMILES CC[C@H](C)[C@H](NC(=O)[C@H](CCCCNC(=N)N)NC(=O)[C@@H](NC(=O)[C@H](CC(C)C)NC(=O)[C@H](CC(N)=O)NC(=O)[C@H](Cc1c[nH]c2ccccc12)NC(=O)CNC(=O)[C@@H]1CCCN1C(=O)[C@H](Cc1ccc(O)cc1)NC(=O)[C@H](CO)NC(=O)[C@H](CCC(=O)O)NC(C)=O)C(C)C)C(=O)NCC(=O)N[C@@H](CC(C)C)C(=O)N[C@@H](CC(C)C)C(=O)N[C@@H](CCCNC(=N)N)C(N)=O) [Compound 231: Ac-ESYPGWNLV(homoR)IGLLR-NH2] :: 15.8

// next item, IC50 requested
Request the reported IC50 associated with Ac-DSYPGWNLV[hArg]IGLLR-NH2 (SMILES CC[C@H](C)[C@H](NC(=O)[C@H](CCCCNC(=N)N)NC(=O)[C@@H](NC(=O)[C@H](CC(C)C)NC(=O)[C@H](CC(N)=O)NC(=O)[C@H](Cc1c[nH]c2ccccc12)NC(=O)CNC(=O)[C@@H]1CCCN1C(=O)[C@H](Cc1ccc(O)cc1)NC(=O)[C@H](CO)NC(=O)[C@H](CC(=O)O)NC(C)=O)C(C)C)C(=O)NCC(=O)N[C@@H](CC(C)C)C(=O)N[C@@H](CC(C)C)C(=O)N[C@@H](CCCNC(=N)N)C(N)=O) [Compound 230: Ac-DSYPGWNLV(homoR)IGLLR-NH2] 24.2
